The measurements presented in this section are drawn from patent US8551937B2.

Molecular target: NEP (Rattus norvegicus)
Construct: male SD strain rats of 7 weeks age (Nippon Charles River; body weight: ca. 250 g) were used; from tissue; host or cells: whole animal: male SD rats (Nippon Charles River), in vivo
Sequence (P07861 whole entry): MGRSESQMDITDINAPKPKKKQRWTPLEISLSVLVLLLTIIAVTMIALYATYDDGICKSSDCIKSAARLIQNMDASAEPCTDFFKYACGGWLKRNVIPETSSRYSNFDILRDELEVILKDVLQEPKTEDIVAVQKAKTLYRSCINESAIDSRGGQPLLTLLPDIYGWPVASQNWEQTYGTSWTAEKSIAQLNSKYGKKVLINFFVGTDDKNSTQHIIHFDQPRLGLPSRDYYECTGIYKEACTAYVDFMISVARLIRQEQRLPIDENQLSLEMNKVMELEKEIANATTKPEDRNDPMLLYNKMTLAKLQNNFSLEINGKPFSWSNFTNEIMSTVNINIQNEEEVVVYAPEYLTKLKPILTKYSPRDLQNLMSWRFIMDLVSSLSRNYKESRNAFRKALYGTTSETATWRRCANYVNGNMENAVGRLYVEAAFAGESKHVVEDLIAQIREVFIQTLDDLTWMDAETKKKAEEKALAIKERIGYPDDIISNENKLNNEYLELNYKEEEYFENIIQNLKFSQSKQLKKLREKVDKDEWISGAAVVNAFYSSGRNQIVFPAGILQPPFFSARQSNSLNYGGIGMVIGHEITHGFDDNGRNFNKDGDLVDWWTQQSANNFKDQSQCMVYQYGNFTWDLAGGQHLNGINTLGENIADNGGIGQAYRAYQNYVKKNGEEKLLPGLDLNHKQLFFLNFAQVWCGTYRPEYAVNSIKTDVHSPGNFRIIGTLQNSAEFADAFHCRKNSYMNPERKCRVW
Test: NEP resistance in vivo: influence of NEP inhibitor on pharmacokinetic parameters after intravenous administration
Settings: male, SD, rat, in vivo, iv, 0.02 mg/kg, NEP Inhibitor (−), intravenous 0.02 mg/kg, male rats, N = 3; read-out: T½
measuredEndpoint: half-life (min)
Record the value in min, omitting the unit from your answer.

Reported half-life ( CC[C@H](C)[C@@H]1NC(=O)[C@H](CCCNC(=N)N)NC(=O)[C@H](CC(=O)O)NC(=O)[C@H](CC(C)C)NC(=O)[C@H](CCCCN)NC(=O)[C@H](CC(C)C)NC(=O)CNC(=O)[C@H](Cc2ccccc2)NC(=O)[C@@H](NC(=O)CNC(=O)[C@H](CCCCN)NC(=O)[C@H](CO)NC(=O)[C@H](CC(C)C)NC(=O)CN)CSSC[C@@H](C(=O)O)NC(=O)CNC(=O)[C@H](CC(C)C)NC(=O)CNC(=O)[C@H](CO)NC(=O)[C@H](CCSC)NC(=O)[C@H](CO)NC(=O)CNC1=O [Native CNP-22] ) = 1.96
